Here the recorded GI50 is given for each entry.
# System: MDA-MB-435
# experimentSummary: NCI tumour cell line growth inhibition, 48 h
Activity calls are given as the source filed them. No stated cut-off is given here; in the data, active = GI50 up to about 1.1 µM and inactive = higher.

{"compound": "NCCCN(CCCCN(CCCN)Cc1ccc2ccccc2c1)Cc1ccc2ccccc2c1", "GI50": "2.2 µM (inactive)"}
{"compound": "O=S(=O)(O)c1ccc2cc(/N=N/c3c(O)ccc4ccccc34)ccc2c1", "GI50": "> 100 µM (inactive)"}
{"compound": "COc1ccc(/C=C2\\CCC/C(=C\\c3ccc(O)c(CN4CCCCC4)c3)C2=O)cc1", "GI50": "3.1 µM (inactive)"}
{"compound": "Cc1nnc2n1-c1ccccc1-c1[nH]c3ccccc3c1C2", "GI50": "60.1 µM (inactive)"}
{"compound": "COC(=O)[C@@H]1[C@@H](c2cccc(Cl)c2)[C@H](C(=O)OC)C2(C[C@@]1(C)O)NCCS2 (stereo not given in full)", "GI50": "52.5 µM (inactive)"}
